Listing of entries alongside the reported Residual Enzyme Activity.
Assay Remarks: Stability assay: residual activity after incubation with 1 mM inhibitor, measured by pNA assay
Assay type: physicochemical
Set-up: key: fraction of activity at 0 h incubation (0.80 = 80%)
Applied Conditions: incubation time 18.6 hours; 1 mM Cu2+; 25° C., pH 7, 0.1% K-sorbate; relative to 0 hours
Give your answer as a number; write no unit.

Protease 11: protease from Nocardiopsis prasina DSM 15648, amino acids 1-188 of SEQ ID NO: 6 (protein, listed as Nocardiopsis prasina) ATGPLPQSPTPEADAVSMQEALQRDLGLTPLEADELLAAQDTAFEVDEAAAAAAGDAYGGSVFDTETLELTVLVTDAASVEAVEATGAGTELVSYGIEGLDEIIQDLNAADAVPGVVGWYPDVAGDTVVLEVLEGSGADVSGLLADAGVDASAVEVTSSAQPELYADIIGGLAYTMGGRCSVGFAATN : 1.032

Next up:
What does the data say about its Residual Enzyme Activity? Entry: Protease 08: protease from Nocardiopsis alba DSM 15647, amino acids 1-188 of SEQ ID NO: 10 (protein, listed as Nocardiopsis alba) ATGPLPQSPTPDEAEATTMVEALQRDLGLSPSQADELLEAQAESFEIDEAATAAAADSYGGSIFDTDSLTLTVLVTDASAVEAVEAAGAEAKVVSHGMEGLEEIVADLNAADAQPGVVGWYPDIHSDTVVLEVLEGSGADVDSLLADAGVDTADVKVESTTEQPELYADIIGGLAYTMGGRCSVGFAA 0.867
